- system: mouse TLR7 (Mus musculus, UniProt P58681)
- Sequence (P58681 27-1050): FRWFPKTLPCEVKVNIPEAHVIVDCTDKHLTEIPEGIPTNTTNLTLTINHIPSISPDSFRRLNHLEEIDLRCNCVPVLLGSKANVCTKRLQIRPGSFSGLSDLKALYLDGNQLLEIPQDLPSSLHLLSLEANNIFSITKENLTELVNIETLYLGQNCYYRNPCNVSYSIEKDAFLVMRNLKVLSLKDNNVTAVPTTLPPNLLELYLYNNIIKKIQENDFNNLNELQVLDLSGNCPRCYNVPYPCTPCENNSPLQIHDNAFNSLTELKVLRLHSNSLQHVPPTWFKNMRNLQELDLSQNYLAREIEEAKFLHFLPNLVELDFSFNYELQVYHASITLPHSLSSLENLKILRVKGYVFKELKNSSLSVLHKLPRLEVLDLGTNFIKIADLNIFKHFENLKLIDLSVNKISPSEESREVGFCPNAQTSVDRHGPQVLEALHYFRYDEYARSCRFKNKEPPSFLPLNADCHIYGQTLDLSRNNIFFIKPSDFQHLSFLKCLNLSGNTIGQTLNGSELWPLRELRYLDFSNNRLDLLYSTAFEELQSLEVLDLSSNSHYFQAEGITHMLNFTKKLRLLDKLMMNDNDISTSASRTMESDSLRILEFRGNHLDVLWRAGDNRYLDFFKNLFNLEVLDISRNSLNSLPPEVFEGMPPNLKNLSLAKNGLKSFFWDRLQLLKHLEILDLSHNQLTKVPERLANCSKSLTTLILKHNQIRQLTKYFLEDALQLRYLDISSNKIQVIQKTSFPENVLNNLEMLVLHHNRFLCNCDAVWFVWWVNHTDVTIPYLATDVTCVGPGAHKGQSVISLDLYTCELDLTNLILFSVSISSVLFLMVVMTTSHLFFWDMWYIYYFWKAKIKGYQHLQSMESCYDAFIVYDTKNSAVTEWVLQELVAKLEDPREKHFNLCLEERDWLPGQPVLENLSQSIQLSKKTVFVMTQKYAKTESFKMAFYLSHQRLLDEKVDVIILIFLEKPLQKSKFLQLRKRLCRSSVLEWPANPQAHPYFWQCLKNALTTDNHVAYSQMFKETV
- assaySummary: Short-term in vivo (STIV) assay: oral dosing, R848 s.c., plasma IL-6
- Set-up: female BALB/c mice (Jackson Labs, Bar Harbor, Me.) were dosed by oral gavage; tissue Jackson Labs; host or cells: living female BALB/c mice; plasma IL-6 after s.c. R848
- conditionSet: 13 h; 100 mg/kg
Rule: % Suppression vs. Vehicle of 80% or more gives 1; anything lower gives 0.

### Prompt Record `C[C@@H]1CN(c2ccc(C#N)c3ncccc23)C[C@H](C(=O)N[C@@H]2CCCN(C)C2)O1` ; criterion: % Suppression vs. Vehicle no lower than 80%. Met?
### Response 0

### Prompt Record CC1CN(c2ccc(C#N)c3ncccc23)CC(C(=O)NC2CCOCC2)O1 (centres unmarked) ; criterion: % Suppression vs. Vehicle no lower than 80%. Met?
### Response 1

### Prompt Record `C[C@@H]1CN(c2ccc(C#N)c3ncccc23)C[C@H](C(=O)NC2CCN(C)CC2)O1` ; criterion: % Suppression vs. Vehicle no lower than 80%. Met?
### Response 1

### Prompt Record `C[C@@H]1CN(c2ccc(C#N)c3ncccc23)C[C@H](C(=O)NC2(C)CCNCC2)O1` ; criterion: % Suppression vs. Vehicle no lower than 80%. Met?
### Response 0

### Prompt Record CC1CN(c2ccc(C#N)c3ncccc23)CC(C(=O)N2CC3(CCNC3)C2)O1 (centres unmarked) ; criterion: % Suppression vs. Vehicle no lower than 80%. Met?
### Response 0

### Prompt Record `C[C@@H]1CN(c2ccc(C#N)c3ncccc23)C[C@H](CN2CCC(C(N)=O)CC2)O1` ; criterion: % Suppression vs. Vehicle no lower than 80%. Met?
### Response 0

### Prompt Record `CC(C)C(=O)NC1CN(C[C@H]2CN(c3ccc(C#N)c4ncccc34)C[C@@H](C)O2)C1` ; criterion: % Suppression vs. Vehicle no lower than 80%. Met?
### Response 0

----------
- system: TLR9 (Homo sapiens)
- Sequence (Q9NR96 26-1032): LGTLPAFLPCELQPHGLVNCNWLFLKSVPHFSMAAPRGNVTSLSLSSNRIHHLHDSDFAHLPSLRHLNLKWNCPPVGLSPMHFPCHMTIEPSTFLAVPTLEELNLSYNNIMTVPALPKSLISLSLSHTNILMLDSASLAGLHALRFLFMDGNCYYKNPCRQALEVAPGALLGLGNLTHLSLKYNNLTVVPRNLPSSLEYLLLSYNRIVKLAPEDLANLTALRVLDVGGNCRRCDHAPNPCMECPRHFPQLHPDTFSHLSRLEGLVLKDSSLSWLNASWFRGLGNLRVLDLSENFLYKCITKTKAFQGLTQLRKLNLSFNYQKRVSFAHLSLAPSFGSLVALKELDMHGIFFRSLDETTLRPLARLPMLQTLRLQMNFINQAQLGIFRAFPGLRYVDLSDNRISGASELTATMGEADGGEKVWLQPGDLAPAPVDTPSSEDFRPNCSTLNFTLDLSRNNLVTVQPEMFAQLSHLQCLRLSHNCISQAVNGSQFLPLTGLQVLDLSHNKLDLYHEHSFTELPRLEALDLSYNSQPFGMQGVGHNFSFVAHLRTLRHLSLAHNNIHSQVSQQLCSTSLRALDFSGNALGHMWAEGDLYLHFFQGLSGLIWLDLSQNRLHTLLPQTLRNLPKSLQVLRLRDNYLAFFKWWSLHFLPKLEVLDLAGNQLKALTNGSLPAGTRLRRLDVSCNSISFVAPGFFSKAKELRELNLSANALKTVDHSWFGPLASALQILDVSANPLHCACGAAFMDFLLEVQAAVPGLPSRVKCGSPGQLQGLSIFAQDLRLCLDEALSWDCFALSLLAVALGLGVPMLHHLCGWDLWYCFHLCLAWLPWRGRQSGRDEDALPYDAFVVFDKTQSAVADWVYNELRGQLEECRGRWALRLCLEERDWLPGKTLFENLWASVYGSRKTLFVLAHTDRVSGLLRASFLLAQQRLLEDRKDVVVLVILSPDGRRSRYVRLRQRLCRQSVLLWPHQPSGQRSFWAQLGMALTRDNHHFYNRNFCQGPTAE
- assaySummary: Subsequent human PBMC assay, DNA-mediated activation of TLR9, IL-6 and IFN-α
- Format: cell-based
- conditionSet: human PBMC; ligand ODN2006-DOTAP; average of donors; read-out: IC50 IL-6 Ave.
valueType: IC50
Answer format reminder: number followed by unit.

### Prompt May I ask what IC50 has been recorded for CCN(CCO)CCCC(C)Nc1ccnc2cc(Cl)ccc12 (stereo not shown) [HCQ, hydroxychloroquine, reference compound] ?
### Response 1720 nM

----------
- system: mouse TLR7 (Mus musculus, UniProt P58681)
- assaySummary: Short-term in vivo (STIV) assay: oral dosing, R848 s.c., plasma IL-6
- Design: female BALB/c mice (Jackson Labs, Bar Harbor, Me.) were dosed by oral gavage; tissue Jackson Labs; host or cells: living female BALB/c mice; plasma IL-6 after s.c. R848
- conditionSet: 19 h; 33 mg/kg
Define the label as y when % Suppression vs. Vehicle is strictly less than 40% and as n in all remaining cases.

### Prompt Hello, I'm reviewing records and need to know if % Suppression vs. Vehicle of `CC[C@H]1CN(C[C@H]2CN(c3ccc(C#N)c4ncccc34)C[C@@H](C)O2)CCN1` is below 40%. Could you check?
### Response n

### Prompt Hello, I'm reviewing records and need to know if % Suppression vs. Vehicle of `CC(C)N1CCN(C[C@H]2CN(c3ccc(C#N)c4ncccc34)C[C@@H](C)O2)CC1` is below 40%. Could you check?
### Response y

### Prompt Hello, I'm reviewing records and need to know if % Suppression vs. Vehicle of CC(=O)NC1CCN(CC2CN(c3ccc(C#N)c4ncccc34)CC(C)O2)CC1 (centres unmarked) is below 40%. Could you check?
### Response n

### Prompt Hello, I'm reviewing records and need to know if % Suppression vs. Vehicle of CC1CN(c2ccc(C#N)c3ncccc23)CC(CN2CCC(NC(=O)c3ccccc3)CC2)O1 (centres unmarked) is below 40%. Could you check?
### Response n

### Prompt Hello, I'm reviewing records and need to know if % Suppression vs. Vehicle of `C[C@@H]1CN(C[C@H]2CN(c3ccc(C#N)c4ncccc34)C[C@@H](C)O2)CCN1` is below 40%. Could you check?
### Response y

### Prompt Hello, I'm reviewing records and need to know if % Suppression vs. Vehicle of `CCCN1CCN(C[C@H]2CN(c3ccc(C#N)c4ncccc34)C[C@@H](C)O2)CC1` is below 40%. Could you check?
### Response n

### Prompt Hello, I'm reviewing records and need to know if % Suppression vs. Vehicle of CC1CN(c2ccc(C#N)c3ncccc23)CC(CN2CCNC(C)C2C)O1 (centres unmarked) is below 40%. Could you check?
### Response y

### Prompt Hello, I'm reviewing records and need to know if % Suppression vs. Vehicle of `C[C@@H]1CN(c2ccc(C#N)c3ncccc23)C[C@H](CN2CC[C@H](O)C2)O1` is below 40%. Could you check?
### Response n

### Prompt Hello, I'm reviewing records and need to know if % Suppression vs. Vehicle of `C[C@@H]1CN(c2ccc(C#N)c3ncccc23)C[C@H](CN2CCC(N3CCCCC3)CC2)O1` is below 40%. Could you check?
### Response n

### Prompt Hello, I'm reviewing records and need to know if % Suppression vs. Vehicle of `C[C@@H]1CN(c2ccc(C#N)c3ncccc23)C[C@H](CN2CCC(N)CC2)O1` is below 40%. Could you check?
### Response n

### Prompt Hello, I'm reviewing records and need to know if % Suppression vs. Vehicle of CC1CN(c2ccc(C#N)c3ncccc23)CC(CN2CCN(C)CC2C)O1 (centres unmarked) is below 40%. Could you check?
### Response n

### Prompt Hello, I'm reviewing records and need to know if % Suppression vs. Vehicle of `Cc1cc(CO)cc(-c2ccc(C#N)c3ncccc23)c1` is below 40%. Could you check?
### Response n

### Prompt Hello, I'm reviewing records and need to know if % Suppression vs. Vehicle of `C[C@@H]1CN(c2ccc(C#N)c3ncccc23)C[C@H](CN2CCN(C)[C@H](C)C2)O1` is below 40%. Could you check?
### Response y

### Prompt Hello, I'm reviewing records and need to know if % Suppression vs. Vehicle of `C[C@@H]1CN(c2ccc(C#N)c3ncccc23)C[C@H](CN2CCN(C)CC2)O1` is below 40%. Could you check?
### Response n

### Prompt Hello, I'm reviewing records and need to know if % Suppression vs. Vehicle of CC1CN(c2ccc(C#N)c3ncccc23)CC(CN2CCCC2CO)O1 (centres unmarked) is below 40%. Could you check?
### Response y

### Prompt Hello, I'm reviewing records and need to know if % Suppression vs. Vehicle of CC1CN(c2ccc(C#N)c3ncccc23)CC(CN2CCC(N(C)C)CC2)O1 (centres unmarked) is below 40%. Could you check?
### Response n

### Prompt Hello, I'm reviewing records and need to know if % Suppression vs. Vehicle of `C[C@@H]1CN(c2ccc(C#N)c3ncccc23)C[C@H](CN2CCC(O)CC2)O1` is below 40%. Could you check?
### Response y

// data source = patent USRE47193E1
